- ASSAY_TEXT: chemical genetic growth profiling, strain panel (AID 1159580);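 further: tested at 20 µM; growth read once vehicle control cultures reached saturation at 30 °C; 1 = growth at the plate median or of vehicle wells; lower values mean less growth of the strain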
- CONDITION_CONTEXT: S. cerevisiae deletion strains, growth OD, locus YCL016C, strain dcc1, stronger effect = lower value
About 2,000 (36%) of roughly 5,500 compounds were called active. Not shown: some 18% with an inconclusive outcome. The list shows a part of the results.
Recorded normalized growth, one value per entry.
QUANTITY: normalized growth

COMPOUND: CC1(C)C(=O)C=C[C@@]2(C)C1C=C[C@]1(C)C2CC[C@@]2(C)[C@H](c3ccoc3)OC(=O)C3OC321 (some centres undefined)
RECORDED_RESULT: 0.98
--
COMPOUND: C[C@@H]1O[C@@H](OC[C@H]2OC(Oc3c(-c4ccc(O)c(O)c4)oc4cc(O)cc(O)c4c3=O)[C@H](O)[C@@H](O)[C@@H]2O)[C@H](O)[C@H](O)[C@H]1O (some centres undefined)
RECORDED_RESULT: 0.982
--
COMPOUND: CC1O[C@@H](Oc2c(-c3ccc(O)c(O)c3)oc3cc(O)cc(O)c3c2=O)[C@H](O)[C@H](O)[C@H]1O (some centres undefined)
RECORDED_RESULT: 0.993
--
COMPOUND: CC1(C)C(=O)C=C[C@@]2(C)C1C[C@@H](O)[C@]1(C)C2CC[C@@]2(C)[C@H](c3ccoc3)OC(=O)[C@H]3O[C@]321 (some centres undefined)
RECORDED_RESULT: 1

---

- ASSAY_TEXT: chemical genetic growth profiling, strain panel (AID 1159580);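 further: tested at 20 µM; growth read once vehicle control cultures reached saturation at 30 °C; 1 = growth at the plate median or of vehicle wells; lower values mean less growth of the strain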
- CONDITION_CONTEXT: S. cerevisiae deletion strains, growth OD, locus YLR039C, strain RIC1, stronger effect = lower value
Out of some 5,500 compounds screened, about 2,000 (36%) were called active. Inconclusive results (about 18%) are left out. Some of the results follow.
API: label(entry) gives true if the entry's normalized growth is strictly smaller than 1; on equality or larger values it gives false.

COMPOUND: COc1ccccc1NC(=O)NCCSCc1ccccc1Cl
GROUP: true

COMPOUND: OC1(C(F)(F)F)CC(c2ccccc2)=NN1 (configuration not stated)
GROUP: true

COMPOUND: CC(=O)OC(C)C[N+](C)(C)C (configuration not stated)
GROUP: false

COMPOUND: O=S(=O)(Oc1cc(Cl)cc(Cl)c1)c1cccc(S(=O)(=O)Oc2cc(Cl)cc(Cl)c2)c1
GROUP: false

COMPOUND: CCCCC1C(=O)N(c2ccccc2)N(c2ccc(O)cc2)C1=O (configuration not stated)
GROUP: true

COMPOUND: CCOC(=O)/C(C#N)=C/c1ccc(Br)cc1
GROUP: true

COMPOUND: O=c1c(O)c(-c2ccc(O)c(O)c2)oc2cc(O)cc(O)c12
GROUP: true

COMPOUND: C/C(=N/NC(=S)Nc1ccc(C(C)C)cc1)c1ccco1
GROUP: true

COMPOUND: CCCCCCCCCCCCCCCCCC(=O)OC(CC(=O)O)C[N+](C)(C)C (configuration not stated)
GROUP: false

COMPOUND: COc1ccc(-c2cc(=O)c3c(O)cc(O[C@@H]4O[C@H](CO[C@H]5O[C@H](C)[C@@H](O)[C@H](O)[C@@H]5O)[C@@H](O)[C@H](O)[C@H]4O)cc3o2)cc1O
GROUP: true

# credit: PubChem BioAssay AID1159580
